Target: progesterone receptor-B (Homo sapiens)
Test: Progesterone receptor-B transactivation, agonistic mode (CHO cells, luciferase)
Assay type: cell-based
Conditions: CHO cells, agonistic mode; read-out: PRBagoEC50
Source text: For selecting compounds of the subject invention with a mixed modulating effect on the progesterone receptor, testing in the agonistic mode must result in an intrinsic activity of between about 15% and about 85% of the maximal activity when (16α)-16-ethyl-21-hydroxy-19-norpregn-4-ene-3,20-dione is used as a reference. Moreover, this maximal agonistic activity should be reached at a concentration of 10^−6 or less, and preferably at a concentration of 10^−8 or less. […]
pEC50: −log10 of the molar value.

>  <Input smiles>
C=C[C@@H]1C[C@H]2[C@@H]3CCC4=CC(=O)CCC4=C3[C@@H](c3ccc(-c4ccc(OC)nc4)cc3)C[C@]2(C)[C@H]1C(=O)C1CC1

>  <pEC50>
9.13

$$$$
>  <Input smiles>
COc1ccc(-c2ccc([C@H]3C[C@]4(C)[C@@H](C(=O)C5CC5)CC[C@H]4[C@@H]4CCC5=CC(=O)CCC5=C43)cc2)cn1

>  <pEC50>
9.29

$$$$
>  <Input smiles>
C[C@@H]1C[C@H]2[C@@H]3CCC4=CC(=O)CCC4=C3[C@@H](c3ccc(-c4ccc(Cl)nc4)cc3)C[C@]2(C)[C@H]1C(=O)C1CC1

>  <pEC50>
8.96

$$$$
>  <Input smiles>
COc1cncc(-c2ccc([C@H]3C[C@@]4(C)[C@@H](C[C@@H](C)[C@@H]4C(=O)C4CC4)[C@@H]4CCC5=CC(=O)CCC5=C43)cc2)c1

>  <pEC50>
8.89

$$$$
>  <Input smiles>
C[C@]12C[C@H](c3ccc(-c4cccnc4)cc3)C3=C4CCC(=O)C=C4CC[C@H]3[C@@H]1CC[C@@H]2C(=O)C1CC1

>  <pEC50>
9.09

$$$$
>  <Input smiles>
C[C@@H]1C[C@H]2[C@@H]3CCC4=CC(=O)CCC4=C3[C@@H](c3ccc(-c4ccc(F)nc4)cc3)C[C@]2(C)[C@H]1C(=O)C1CC1

>  <pEC50>
9.31

$$$$

###

Target: UniProt:P06401
Test: Progesterone receptor-B transactivation, antagonistic mode (inhibition of luciferase transactivation by inducer, CHO cells)
Type: cell-based
Conditions: in the presence of 0.1 nM inducer (16α)-16-ethyl-21-hydroxy-19-norpregn-4-ene-3,20-dione; read-out: PRBant EC50
pEC50: −log10 of the molar value. Where a name gives a salt, the structure may show the parent alone.
Property: pEC50

>  <Molecule>
C=C[C@@H]1C[C@H]2[C@@H]3CCC4=CC(=O)CCC4=C3[C@@H](c3ccc(-c4ccc(OC)nc4)cc3)C[C@]2(C)[C@H]1C(=O)C1CC1

>  <Result number>
9.01

$$$$
>  <Molecule>
C[C@]12C[C@H](c3ccc(-c4cccnc4)cc3)C3=C4CCC(=O)C=C4CC[C@H]3[C@@H]1CC[C@]2(C)C(=O)C1CC1

>  <Result number>
9.89

$$$$
>  <Molecule>
Cc1ccc(-c2ccc([C@H]3C[C@@]4(C)[C@@H](C[C@@H](C)[C@@H]4C(=O)C4CC4)[C@@H]4CCC5=CC(=O)CCC5=C43)cc2)nc1

>  <Result number>
9.10

$$$$
>  <Molecule>
C[C@@H]1C[C@H]2[C@@H]3CCC4=CC(=NO)CCC4=C3[C@@H](c3ccc(-c4cccnc4)cc3)C[C@]2(C)[C@H]1C(=O)C1CC1

>  <Result number>
8.83

$$$$
>  <Molecule>
C[C@@H]1C[C@H]2[C@@H]3CCC4=CC(=O)CCC4=C3[C@@H](c3ccc(-c4cccnc4)cc3)C[C@]2(C)[C@H]1C(=O)C1CC1

>  <Result number>
9.57

$$$$
>  <Molecule>
C[C@@H]1C[C@H]2[C@@H]3CCC4=CC(=O)CCC4=C3[C@@H](c3ccc(-c4cccnc4)cc3)C[C@]2(C)[C@H]1C(=O)C1CC1.Cl [Example 2, hydrochloride]

>  <Result number>
8.48

$$$$
>  <Molecule>
CC12CC(c3ccc(-c4cccnc4)cc3)C3=C4CCC(=O)C=C4CCC3C1CCC21CCCC1=O (stereo not drawn) [Example 25, hydrochloride]

>  <Result number>
8.96

$$$$
>  <Molecule>
COc1ccc(-c2ccc([C@H]3C[C@]4(C)[C@@H](C(=O)C5CC5)CC[C@H]4[C@@H]4CCC5=CC(=O)CCC5=C43)cc2)cn1

>  <Result number>
9.37

$$$$
>  <Molecule>
COc1cncc(-c2ccc([C@H]3C[C@@]4(C)[C@@H](C[C@@H](C)[C@@H]4C(=O)C4CC4)[C@@H]4CCC5=CC(=O)CCC5=C43)cc2)c1

>  <Result number>
7.55

$$$$
>  <Molecule>
C[C@@H]1C[C@H]2[C@@H]3CCC4=CC(=O)CCC4=C3[C@@H](c3ccc(-c4ncccn4)cc3)C[C@]2(C)[C@H]1C(=O)C1CC1

>  <Result number>
8.49

$$$$
>  <Molecule>
C=C[C@@H]1C[C@H]2[C@@H]3CCC4=CC(=O)CCC4=C3[C@@H](c3ccc(-c4cccnc4)cc3)C[C@]2(C)[C@H]1C(=O)C1CC1

>  <Result number>
9.21

$$$$
>  <Molecule>
C[C@@H]1C[C@H]2[C@@H]3CCC4=CC(=O)CCC4=C3[C@@H](c3ccc(-c4cnccn4)cc3)C[C@]2(C)[C@H]1C(=O)C1CC1

>  <Result number>
8.89

$$$$

###

Target: progesterone receptor-B (Homo sapiens, UniProt P06401)
Experiment: Progesterone receptor-B transactivation, agonistic mode (CHO cells, luciferase)
Type: cell-based
Conditions: CHO, intrinsic agonistic activity, relative to reference (16α)-16-ethyl-21-hydroxy-19-norpregn-4-ene-3,20-dione; read-out: PRBago Eff (%)
Property: Emax (%)

>  <Input smiles>
CC[C@@H]1C[C@H]2[C@@H]3CCC4=CC(=O)CCC4=C3[C@@H](c3ccc(-c4ccc(OC)nc4)cc3)C[C@]2(C)[C@H]1C(=O)C1CC1

>  <Result unit>
%

>  <Result number>
42

$$$$
>  <Input smiles>
CC[C@@H]1C[C@H]2[C@@H]3CCC4=CC(=O)CCC4=C3[C@@H](c3ccc(-c4cccnc4)cc3)C[C@]2(C)[C@H]1C(=O)C1CC1

>  <Result unit>
%

>  <Result number>
34

$$$$
>  <Input smiles>
C[C@@H]1C[C@H]2[C@@H]3CCC4=CC(=O)CCC4=C3[C@@H](c3ccc(-c4ccnnc4)cc3)C[C@]2(C)[C@H]1C(=O)C1CC1

>  <Result unit>
%

>  <Result number>
50.5

$$$$

###

Target: progesterone receptor-B (Homo sapiens)
Sequence (P06401 1-933): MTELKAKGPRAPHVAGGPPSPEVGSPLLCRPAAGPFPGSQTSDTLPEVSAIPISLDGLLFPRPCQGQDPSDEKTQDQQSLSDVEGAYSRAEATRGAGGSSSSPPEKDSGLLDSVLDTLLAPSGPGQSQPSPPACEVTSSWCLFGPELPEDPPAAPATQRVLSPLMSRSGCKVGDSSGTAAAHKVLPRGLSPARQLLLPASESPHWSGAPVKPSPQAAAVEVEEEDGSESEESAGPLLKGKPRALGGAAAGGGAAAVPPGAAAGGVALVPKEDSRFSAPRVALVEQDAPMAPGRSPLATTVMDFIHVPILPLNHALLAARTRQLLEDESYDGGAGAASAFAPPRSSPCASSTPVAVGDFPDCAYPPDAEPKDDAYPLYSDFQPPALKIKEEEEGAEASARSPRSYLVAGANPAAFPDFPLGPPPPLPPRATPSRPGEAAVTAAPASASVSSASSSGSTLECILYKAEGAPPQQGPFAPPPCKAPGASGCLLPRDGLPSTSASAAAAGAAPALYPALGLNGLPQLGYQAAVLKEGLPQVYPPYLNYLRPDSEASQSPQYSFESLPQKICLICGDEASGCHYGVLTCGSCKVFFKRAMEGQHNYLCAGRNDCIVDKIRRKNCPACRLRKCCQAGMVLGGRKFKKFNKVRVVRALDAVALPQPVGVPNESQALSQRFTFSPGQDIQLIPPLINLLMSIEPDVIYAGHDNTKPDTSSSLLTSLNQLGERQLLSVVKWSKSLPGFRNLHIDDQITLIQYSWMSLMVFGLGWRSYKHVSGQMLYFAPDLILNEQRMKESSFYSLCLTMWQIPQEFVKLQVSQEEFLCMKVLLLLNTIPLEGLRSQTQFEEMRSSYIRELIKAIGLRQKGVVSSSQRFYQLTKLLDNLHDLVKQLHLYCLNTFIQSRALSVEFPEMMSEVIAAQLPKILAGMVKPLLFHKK
Assay: Progesterone receptor-B transactivation, agonistic mode (CHO cells, luciferase)
Assay type: cell-based
Details: CHO cells, agonistic mode; read-out: PRBagoEC50
pEC50: −log10 of the molar value.
pEC50 values for the compounds below.

>  <Compound>
C[C@@H]1C[C@H]2[C@@H]3CCC4=CC(=O)CCC4=C3[C@@H](c3ccc(-c4ccncc4)cc3)C[C@]2(C)[C@H]1C(=O)C1CC1

>  <pEC50>
8.40

$$$$
>  <Compound>
C[C@@H]1C[C@H]2[C@@H]3CCC4=CC(=O)CCC4=C3[C@@H](c3ccc(-c4cccnc4)cc3)C[C@]2(C)[C@H]1C(=O)C1CC1.Cl [Example 2, hydrochloride]

>  <pEC50>
9.47

$$$$
>  <Compound>
CC[C@@H]1C[C@H]2[C@@H]3CCC4=CC(=O)CCC4=C3[C@@H](c3ccc(-c4cccnc4)cc3)C[C@]2(C)[C@H]1C(=O)C1CC1

>  <pEC50>
9.64

$$$$
>  <Compound>
C[C@@H]1C[C@H]2[C@@H]3CCC4=CC(=O)CCC4=C3[C@@H](c3ccc(-c4cnc5ccccc5c4)cc3)C[C@]2(C)[C@H]1C(=O)C1CC1

>  <pEC50>
9.00

$$$$
>  <Compound>
CC[C@@H]1C[C@H]2[C@@H]3CCC4=CC(=O)CCC4=C3[C@@H](c3ccc(-c4ccc(OC)nc4)cc3)C[C@]2(C)[C@H]1C(=O)C1CC1

>  <pEC50>
8.89

$$$$
>  <Compound>
C[C@@H]1C[C@H]2[C@@H]3CCC4=CC(=O)CCC4=C3[C@@H](c3ccc(-c4cnccn4)cc3)C[C@]2(C)[C@H]1C(=O)C1CC1

>  <pEC50>
8.95

$$$$
